All values here come from patent US20240327505A1.

system: SARS-CoV-2 spike S1 protein (SARS-CoV-2, UniProt P0DTC2 16-685)
measurement.type: pKd
Expect pKd as a plain number equal to -log10 of the molar concentration.

Below are worked cases with known answers.
INSERT INTO assay_data (binder, readout_number) VALUES
  ('AB-009221 (antibody, V domains shown) VH: EVQLVESGGGLVQPGGSLRLSCAASGFTVSSNYMSWVRQAPGKGLEWVSVIYSGGSTYYADSVKGRFTISRHNSKNTLYLQMNSLRAEDTAVYYCARDRNAFDIWGQGTMVIVSS VL: DIQMTQSPSSLSASVGDRVSITCQASQDISNDLNWYQQKPGKAPKLLVYDASKLETGVPPRFSGSGSGTDFTFTISSLQPEDIATYYCQQYDNLPLYSFGQGTKLEIK', 7.47),
  ('AB-009269 (antibody, V domains shown) VH: QVQLVQSGAEVKKPGASVKVSCKASGYTFTSYGISWVRQAPGQGLEWMGWISAYNGNTNYAQKLQGRVTMTTDTSTSTAYMELRSLRSDDTAVYYCAREGDCSGGSCYSGYYYYYGMDVWGQGTTVTVSS VL: EIVLTQSPATLSLSPGERATLSCRASQSVSSYLAWYQQKPGQAPRLLIYDASNRATGIPARFSGSGSGTDFTLTISSLEPEDFAVYYCQQRSNWGTFGPGTKVDIK', 7.78);

Attention now turns to another entry.
Report pKd for AB-009731 (antibody, V domains shown) VH: QVQLVQSGAEVKKTGASVKLSCKASGYSLTSYAMHWVRQAPGQRLEWMGWLNGGNGNTKYSQKFQARVTITSDTSARTVYMELSSLTSEDTAVYYCARADHSTYWYGWFDPWGQGTLVTVSS VL: QSVLTQPPSASGTPGQRVTISCSGSTSNIGSNYVFWYQQFPGTAPKLLIYRNDQRPSGVPDRFSASKAGTSASLAISGLRSEDEADYYCTSWDDSLNGPLFGGGTKLTVL please. 7.32
